# System Name: Substance-P receptor (Homo sapiens); note: in other assays of this panel Not Active means under 50% inhibition at 10 µM
# Sequence (P25103 whole entry): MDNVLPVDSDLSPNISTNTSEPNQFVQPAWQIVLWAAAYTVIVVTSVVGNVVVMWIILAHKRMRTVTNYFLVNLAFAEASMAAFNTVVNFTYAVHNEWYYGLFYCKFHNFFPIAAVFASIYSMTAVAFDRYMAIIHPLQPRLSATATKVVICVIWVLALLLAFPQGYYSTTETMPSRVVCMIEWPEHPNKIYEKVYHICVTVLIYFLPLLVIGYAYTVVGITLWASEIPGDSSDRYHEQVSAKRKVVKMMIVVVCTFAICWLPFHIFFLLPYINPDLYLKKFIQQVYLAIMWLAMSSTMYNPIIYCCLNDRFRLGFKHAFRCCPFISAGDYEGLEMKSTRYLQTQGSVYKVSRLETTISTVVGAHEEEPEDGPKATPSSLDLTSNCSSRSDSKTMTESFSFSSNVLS
# Format: cell membranes, Membrane
# Study Conditions: cho
Reported Metric: IC50

Past entries and their recorded results:
>>> assay_result("C#C[C@]1(O)CC[C@H]2[C@@H]3CCc4cc(OC)ccc4[C@H]3CC[C@@]21C")
"Not Active"
>>> assay_result("C[C@@H]1C[C@@H]([C@H](O)CC2CC(=O)NC(=O)C2)C(=O)[C@@H](C)C1 [CYCLOHEXIMIDE]")
"Not Active"
>>> assay_result("CC(=O)Nc1cccc(O)c1")
"Not Active"
>>> assay_result("CCc1c2c(nc3ccc(OC(=O)N4CCC(N5CCCCC5)CC4)cc13)-c1cc3c(c(=O)n1C2)COC(=O)[C@]3(O)CC")
"Not Active"
>>> assay_result("COP(=O)(OC)OC=C(Cl)Cl")
"Not Active"
>>> assay_result("N[C@H](CSC(=S)NCc1ccccc1)C(=O)O")
"Not Active"

// next item, IC50 requested
Query: Report value: IC50, system: Substance-P receptor (Homo sapiens), compound: Cc1nccn1CC1CCc2c(c3ccccc3n2C)C1=O (configuration not stated); note: in other assays of this panel Not Active means under 50% inhibition at 10 µM
Result: Not Active

Reference source: ChEMBL document CHEMBL1909046
